- System: TK-10
- Assay Details: NCI tumour cell line growth inhibition, 48 h
Activity calls are given as the source filed them. Rule as the data show it: active = GI50 up to about 1.1 µM and inactive = higher.
Measurement Name: GI50

Entry COc1cc2c(cc1OC)[C@@H](C(O)c1ccccc1)NCC2 (stereo not given in full) , GI50 reported as > 100 µM (inactive)

Record summary for Nc1n[nH]c2nc3ccc(C(F)(F)F)cc3nc12 : reported GI50 = 32.4 µM (inactive)

Entry under test: NS(=O)(=O)c1ccc(/N=N/c2c(O)c(C(=O)O)cc3ccccc23)cc1 . Its GI50 was > 100 µM (inactive)

Short answer for O=C1/C(=C/c2ccc(Cl)cc2)CCC/C1=C\c1ccc(O)c(CN2CCCCC2)c1 : GI50 was 29.2 µM (inactive)

Lab note: measured GI50 of COc1cc2c3c(c1OC)Oc1ccc(cc1)CC1c4c(cc(OC)c(OC)c4Oc4ccc(cc4)CC3N(C)CC2)CCN1C (stereo not given) was 22.1 µM (inactive)
